- methodNotes: Inhibition of dog kidney Na+K+-ATPase assessed as hydrolysis of [32P]ATP
- Parameters: species or system Canis lupus familiaris
Could you please report measured log10(IC50) for the items listed next?
Hello, just confirming the data are log10 of IC50 with units of nM.

Worked set:
C[C@]12CC/C(=N\O[C@@H]3CCNC3)C[C@@H]1[C@@H](NC=O)C[C@@H]1[C@@H]2CC[C@]2(C)C(=O)CC[C@@H]12.Cl | 1.61
C[C@]12CC/C(=N\OCCN)C[C@@H]1[C@@H](CCO)C[C@@H]1[C@@H]2CC[C@]2(C)C(=O)CC[C@@H]12.Cl | 2.51
CO/N=C1\C[C@@H]2[C@H](CC[C@]3(C)C(=O)CC[C@@H]23)[C@@]2(C)CC/C(=N\O[C@@H]3CCNC3)C[C@H]12 | 1.26
C[C@]12CC/C(=N\OCCN)C[C@@H]1[C@]1(CO1)C[C@@H]1[C@@H]2CC[C@]2(C)C(=O)CC[C@@H]12 | 2.94

Would you mind listing log10(IC50) for each of the following molecules?
1. CNCCCO/N=C1\CC[C@@]2(C)[C@H](C1)[C@@H](CO)C[C@@H]1[C@@H]2CC[C@]2(C)C(=O)CC[C@@H]12.Cl
2. C#C[C@H]1C[C@@H]2[C@H](CC[C@]3(C)C(=O)CC[C@@H]23)[C@@]2(C)CC/C(=N\O[C@@H]3CCNC3)C[C@H]12.Cl

[2.84, 2.04]

* * *

Exercise: state measured IC50 for each of the compounds provided.
- methodNotes: Inhibition of dog kidney Na+K+-ATPase assessed as hydrolysis of [32P]ATP
- Set-up: species or system Canis lupus familiaris
One number for each entry, in µM.

C[C@]12CC/C(=N\OCCN)C[C@@H]1[C@@H](O[N+](=O)[O-])C[C@@H]1[C@@H]2CC[C@]2(C)C(=O)CC[C@@H]12.O=C(O)/C=C/C(=O)O | 0.33
CNCCCO/N=C1\CC[C@@]2(C)[C@H](C1)[C@@H](C(N)=O)C[C@@H]1[C@@H]2CC[C@]2(C)C(=O)CC[C@@H]12 | 1.9
C[C@]12CC/C(=N\OCCN)C[C@@H]1/C(=C/CO)C[C@@H]1[C@@H]2CC[C@]2(C)C(=O)CC[C@@H]12 | 0.77
CNCCCO/N=C1\CC[C@@]2(C)[C@H](C1)/C(=N/OC)C[C@@H]1[C@@H]2CC[C@]2(C)C(=O)CC[C@@H]12 | 0.33
COC[C@@H]1C[C@@H]2[C@H](CC[C@]3(C)C(=O)CC[C@@H]23)[C@@]2(C)CC/C(=N\OCCN)C[C@H]12 | 3

Answer for every listed entry: what is its IC50? The entries follow.
1. C#C[C@H]1C[C@@H]2[C@H](CC[C@]3(C)C(=O)CC[C@@H]23)[C@@]2(C)CC/C(=N\OCCCNC)C[C@H]12
2. C[C@]12CC/C(=N\OCCN)C[C@@H]1[C@H](O)C[C@@H]1[C@@H]2CC[C@]2(C)C(=O)CC[C@@H]12
3. C[C@]12CC/C(=N\O[C@@H]3CCNC3)C[C@@H]1C(=O)C[C@@H]1[C@@H]2CC[C@]2(C)C(=O)CC[C@@H]12
4. CNCCCO/N=C1\CC[C@@]2(C)[C@H](C1)[C@@H](C)C[C@@H]1[C@@H]2CC[C@]2(C)C(=O)CC[C@@H]12.Cl
5. C[C@]12CC/C(=N\OCCN)C[C@@H]1[C@@H](C(N)=O)C[C@@H]1[C@@H]2CC[C@]2(C)C(=O)CC[C@@H]12
6. C[C@]12CC/C(=N\OCCN)C[C@@H]1[C@@H](CO)C[C@@H]1[C@@H]2CC[C@]2(C)C(=O)CC[C@@H]12.Cl

1. 1.2
2. 2.1
3. 0.026
4. 0.91
5. 0.63
6. 0.18

For each of the compounds below, state IC50.
1. C[C@]12CC/C(=N\OCCN)C[C@@H]1[C@@H](O)C[C@@H]1[C@@H]2CC[C@]2(C)C(=O)CC[C@@H]12
2. CO[C@@H]1C[C@@H]2[C@H](CC[C@]3(C)C(=O)CC[C@@H]23)[C@@]2(C)CC/C(=N\OCCN)C[C@H]12

1: 0.52; 2: 1.5

* * *

- System: Cavia porcellus
- methodNotes: Positive inotropic activity in guinea pig atria assessed as increase in […] at 0.16 ml/min, iv
- Type: functional
Record form. Attribute: Emax. Fill in for each entry.
Numbers only, in %.

Worked set:
CNCCCO/N=C1\CC[C@@]2(C)[C@H](C1)/C(=N/O)C[C@@H]1[C@@H]2CC[C@]2(C)C(=O)CC[C@@H]12.Cl | 158
CO[C@H]1C[C@@H]2[C@H](CC[C@]3(C)C(=O)CC[C@@H]23)[C@@]2(C)CC/C(=N\OCCN)C[C@H]12.Cl | 167
C[C@]12CC/C(=N\O[C@@H]3CCNC3)C[C@@H]1[C@@H](CCO)C[C@@H]1[C@@H]2CC[C@]2(C)C(=O)CC[C@@H]12.Cl | 183
CNCCCO/N=C1\CC[C@@]2(C)[C@H](C1)[C@@H](NC=O)C[C@@H]1[C@@H]2CC[C@]2(C)C(=O)CC[C@@H]12.Cl | 177
C[C@]12CC/C(=N\O[C@@H]3CCNC3)C[C@@H]1[C@@H](NC=O)C[C@@H]1[C@@H]2CC[C@]2(C)C(=O)CC[C@@H]12.Cl | 142

Look at each molecule and report its Emax.
1. CNCCCO/N=C1\CC[C@@]2(C)[C@H](C1)[C@@H](C)C[C@@H]1[C@@H]2CC[C@]2(C)C(=O)CC[C@@H]12.Cl
2. C[C@]12CC/C(=N\O[C@@H]3CCNC3)C[C@@H]1C(=C(F)F)C[C@@H]1[C@@H]2CC[C@]2(C)C(=O)CC[C@@H]12.Cl
3. C[C@]12CC/C(=N\OCCN)C[C@@H]1[C@@H](O[N+](=O)[O-])C[C@@H]1[C@@H]2CC[C@]2(C)C(=O)CC[C@@H]12.O=C(O)/C=C/C(=O)O

[213, 244, 172]

Hey, can you go through the list below and give me Emax for every item?
1. CNCCCO/N=C1\CC[C@@]2(C)[C@H](C1)[C@@H](CO)C[C@@H]1[C@@H]2CC[C@]2(C)C(=O)CC[C@@H]12.Cl
2. C#C[C@H]1C[C@@H]2[C@H](CC[C@]3(C)C(=O)CC[C@@H]23)[C@@]2(C)CC/C(=N\O[C@@H]3CCNC3)C[C@H]12.Cl
3. C[C@H]1C[C@@H]2[C@H](CC[C@]3(C)C(=O)CC[C@@H]23)[C@@]2(C)CC/C(=N\OCCN)C[C@H]12.Cl

1: 263; 2: 147; 3: 203

* * *

- methodNotes: Therapeutic index, ratio of lethal dose to ED80 for inotropic activity in guinea pig
- Format: organism-based, Cavia porcellus
- settings: in vivo
The label depends only on selectivity ratio: true (1) if it is at least 10, false (0) if it is smaller.

C[C@]12CC/C(=N\OCCN)C[C@@H]1/C(=N/O)C[C@@H]1[C@@H]2CC[C@]2(C)C(=O)CC[C@@H]12.Cl | true (1)
CNCCCO/N=C1\CC[C@@]2(C)[C@H](C1)[C@@H](CO)C[C@@H]1[C@@H]2CC[C@]2(C)C(=O)CC[C@@H]12.Cl | true (1)
CNCCCO/N=C1\CC[C@@]2(C)[C@H](C1)[C@@H](NC=O)C[C@@H]1[C@@H]2CC[C@]2(C)C(=O)CC[C@@H]12.Cl | true (1)

Is reported selectivity ratio greater than or equal to 10 here: C[C@]12CC/C(=N\OCCN)C[C@@H]1[C@@H](NC=O)C[C@@H]1[C@@H]2CC[C@]2(C)C(=O)CC[C@@H]12.O=C(O)/C=C/C(=O)O
true (1)

Is reported selectivity ratio greater than or equal to 10 here: C[C@]12CC/C(=N\O[C@@H]3CCNC3)C[C@@H]1[C@@H](NC=O)C[C@@H]1[C@@H]2CC[C@]2(C)C(=O)CC[C@@H]12.Cl
true (1)

Check if selectivity ratio >= 10 (inclusive). Item: CO[C@H]1C[C@@H]2[C@H](CC[C@]3(C)C(=O)CC[C@@H]23)[C@@]2(C)CC/C(=N\OCCN)C[C@H]12.Cl
false (0)

* * *

For each entry below, report its IC50 value.
- methodNotes: Inhibition of dog kidney Na+K+-ATPase assessed as hydrolysis of [32P]ATP
- Parameters: species or system Canis lupus familiaris
Give bare numbers, in nM.

CCO/N=C1\C[C@@H]2[C@H](CC[C@]3(C)C(=O)CC[C@@H]23)[C@@]2(C)CC/C(=N\OCCN)C[C@H]12 | 1700
C[C@]12CC/C(=N\OCCN)C[C@@H]1[C@@H](NC=O)C[C@@H]1[C@@H]2CC[C@]2(C)C(=O)CC[C@@H]12.O=C(O)/C=C/C(=O)O | 160
C[C@]12CC/C(=N\OCCN)C[C@@H]1[C@@H](C#N)C[C@@H]1[C@@H]2CC[C@]2(C)C(=O)CC[C@@H]12 | 1100
COC[C@H]1C[C@@H]2[C@H](CC[C@]3(C)C(=O)CC[C@@H]23)[C@@]2(C)CC/C(=N\OCCN)C[C@H]12 | 500
CNCCCO/N=C1\CC[C@@]2(C)[C@H](C1)C1(CC1)C[C@@H]1[C@@H]2CC[C@]2(C)C(=O)CC[C@@H]12 | 1300
C[C@]12CC/C(=N\OCCN)C[C@@H]1[C@@]1(CO1)C[C@@H]1[C@@H]2CC[C@]2(C)C(=O)CC[C@@H]12 | 910
C[C@]12CC/C(=N\OCCN)C[C@@H]1C1(CC1)C[C@@H]1[C@@H]2CC[C@]2(C)C(=O)CC[C@@H]12 | 850
C[C@]12CC/C(=N\O[C@@H]3CCNC3)C[C@@H]1C(=C(F)F)C[C@@H]1[C@@H]2CC[C@]2(C)C(=O)CC[C@@H]12.Cl | 21

For every listed record, write down its IC50.
1. C[C@]12CC/C(=N\OCCN)C[C@@H]1[C@H](CO)C[C@@H]1[C@@H]2CC[C@]2(C)C(=O)CC[C@@H]12
2. C=C1C[C@@H]2[C@H](CC[C@]3(C)C(=O)CC[C@@H]23)[C@@]2(C)CC/C(=N\OCCCNC)C[C@H]12
3. C[C@]12CC/C(=N\O[C@@H]3CCNC3)C[C@@H]1[C@@H](O[N+](=O)[O-])C[C@@H]1[C@@H]2CC[C@]2(C)C(=O)CC[C@@H]12
4. C[C@]12CC/C(=N\OCCN)C[C@@H]1/C(=C/C#N)C[C@@H]1[C@@H]2CC[C@]2(C)C(=O)CC[C@@H]12
5. CC(=O)N[C@H]1C[C@@H]2[C@H](CC[C@]3(C)C(=O)CC[C@@H]23)[C@@]2(C)CC/C(=N\OCCN)C[C@H]12

1. 1600
2. 570
3. 380
4. 1700
5. 45000
